Test: Quantitative High-Throughput drug screen in 47 multiple myeloma cell lines against the NCATS MIPE library collection: U266_ATCC cell viability assay (AID 1919864); also: nearly all actives have a fitted effect of over 35% in size
Conditions: U266 myeloma viability, CellTiter-Glo ATP luminescence, 48 h; series mostly up to 45.8 µM
From the text: PI: Beverly A. Mock Ph.D. Laboratory of Cancer Biology and Genetics, Center for Cancer Research, National Cancer Institute, National Institute of Health, Bethesda, Maryland […] 5; Detector; 425V; Luminescence; Viewlux PerkinElmer. […] 1. […] Briefly, the corresponding myeloma cell lines were screened in 1,536-well plates with 500 cells, 5-uL per well for inhibition of cell viability (assessed by measuring ATP levels with CellTiterGlo). […]
Results filed as inconclusive are left out. Active and inactive are the calls of the source. Calls follow the shape of the dose curve; as a rule, active = well fitted cell-killing curve with a large enough effect; inconclusive = small, poorly fitted or top-dose-only effect, or effect the other way; inactive = no such curve, though single readings can be large or run the other way.
Use one of these outcomes when replying: TRUE for active, FALSE for inactive

[
  {
    "compound": "Cc1ccccc1C(C(=O)NC1CCCCC1)N(C(=O)Cn1ccnc1C)c1cccc(F)c1 (centres undefined)",
    "category": "TRUE"
  },
  {
    "compound": "C[N+](C)(C)CC(=O)O",
    "category": "FALSE"
  },
  {
    "compound": "Nc1ncnc2ccccc12",
    "category": "FALSE"
  },
  {
    "compound": "N#CC(=C(N)Sc1ccccc1N)C(C#N)=C(N)Sc1ccccc1N",
    "category": "TRUE"
  },
  {
    "compound": "Cc1nc(N)sc1-c1ccnc(Nc2ccc(N3CCOCC3)cc2)n1",
    "category": "TRUE"
  }
]

Record request — test call for COc1ccc(C2CC(c3ccccc3)=NN2c2ccc(S(N)(=O)=O)cc2)cc1 (centres undefined)
FALSE

Record request — test call for `Cc1cccc(Nc2nc(-c3ccncc3)cs2)c1`
FALSE

Record request — test call for COc1ccc(C2Sc3ccccc3N(CCN(C)C)C(=O)C2OC(C)=O)cc1 (centres undefined)
TRUE

Record request — test call for `COc1cc(Nc2ncc(F)c(Nc3ccc4c(n3)NC(=O)C(C)(C)O4)n2)cc(OC)c1OC`
FALSE

Record request — test call for `CN1C[C@H]2c3ccccc3Oc3ccc(Cl)cc3[C@@H]2C1`
FALSE
